Assay: Skin compound concentration after 14 days oral dosing
Assay type: in vivo, mouse
Details: male, C57BL/6, mouse, skin/plasma; DIO mice, 14 days oral dosing; read-out: Skin/Plasma Ratio (skin to plasma concentration ratio)
endpoint: Kp

INSERT INTO assay_data (compound, endpoint, observed_measurement) VALUES
  ('O=C(Nc1ccc([C@H]2CC[C@H](C(=O)O)CC2)cc1F)c1nnc(Nc2ccc(F)c(F)c2)o1 [Cpd3]', 'Kp', 0.098),
  ('Nc1ncnc2c1C(=O)N(c1ccc([C@H]3CC[C@H](CC(=O)O)CC3)cc1)CCO2 [Cpd1]', 'Kp', 0.32);

----------
Molecular target: mDGAT1 (Mus musculus, UniProt Q9Z2A7)
Construct: made in house; host or cells: Pichia (membrane preparations)
Sequence (Q9Z2A7 1-498): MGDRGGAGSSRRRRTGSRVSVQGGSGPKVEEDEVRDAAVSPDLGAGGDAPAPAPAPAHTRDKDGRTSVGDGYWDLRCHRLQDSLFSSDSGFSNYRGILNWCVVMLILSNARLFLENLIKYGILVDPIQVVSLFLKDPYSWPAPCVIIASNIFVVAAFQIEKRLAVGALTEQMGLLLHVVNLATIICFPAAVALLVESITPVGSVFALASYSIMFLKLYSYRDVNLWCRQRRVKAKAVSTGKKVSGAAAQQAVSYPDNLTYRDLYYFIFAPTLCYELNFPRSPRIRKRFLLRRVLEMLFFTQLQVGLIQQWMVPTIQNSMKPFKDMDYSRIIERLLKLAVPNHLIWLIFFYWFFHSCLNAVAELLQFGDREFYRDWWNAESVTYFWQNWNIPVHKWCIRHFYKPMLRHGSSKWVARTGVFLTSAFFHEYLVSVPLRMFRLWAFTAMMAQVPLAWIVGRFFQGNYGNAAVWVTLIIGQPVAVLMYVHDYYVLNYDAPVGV
Test: DGAT1 enzyme assay
Format: biochemical
Settings: in vitro potency, same values in µM
endpoint: IC50 (µM)

INSERT INTO assay_data (molecule, tested_target, observed_measurement) VALUES
  ('O=C(Nc1ccc([C@H]2CC[C@H](C(=O)O)CC2)cc1F)c1nnc(Nc2ccc(F)c(F)c2)o1 [Cpd3]', 'mDGAT1 (Mus musculus, UniProt Q9Z2A7)', 0.011);

----------
Biological target: mDGAT1 (Mus musculus, UniProt Q9Z2A7)
Construct: made in house; host or cells: Pichia (membrane preparations)
Assay: DGAT1 enzyme assay
Assay type: biochemical
Conditions: in vitro potency
pIC50: −log10 of the molar value.
endpoint: pIC50

INSERT INTO measurements (compound, observed_measurement) VALUES
  ('O=C(Nc1ccc([C@H]2CC[C@H](C(=O)O)CC2)cc1F)c1nnc(Nc2ccc(F)c(F)c2)o1 [Cpd3]', 7.96);
